Measured growth inhibition by item
procedure text: NCI Yeast Anticancer Drug Screen. Data for the mec2-1 strain (AID 157)
condition notes: S. cerevisiae mec2-1 strain, at 50.0 µM, stronger effect = higher value
The panel holds about 79,000 compounds, 15% with a hit somewhere; the sample as a whole holds those more often.
reported property: growth inhibition (%)

[[record]]
compound = "O=c1oc2ccccc2c(O)c1C(C/C(CCN1CCCC1)=N\\Nc1ccccc1)c1ccccc1 (centres undefined)"
value = 80.7

[[record]]
compound = "O=C(O)CP(=O)(c1ccccc1)c1ccccc1.O=C(O)CP(=O)(c1ccccc1)c1ccccc1.[Cd]"
value = 42.6

[[record]]
compound = "Clc1ccc(-c2cc(=[N+]3CC[N+](=c4cc(-c5ccc(Cl)cc5)ss4)CC3)ss2)cc1"
value = 98.2

[[record]]
compound = "Cc1cc(N(CCCl)CCCl)ccc1CN1CCCN(Cc2ccc(N(CCCl)CCCl)cc2C)C1c1ccc(N(CCCl)CCCl)cc1C"
value = 98


* * *

procedure text: NCI Yeast Anticancer Drug Screen. Data for the mec2-1 strain (AID 157)
condition notes: S. cerevisiae mec2-1 strain, at 50.0 µM (retest, dose inferred, filed as 5.0)
Compounds without any hit were thinned out: in the full panel of roughly 79,000, 15% have a hit. Calls of active or inactive are those of the source. Cut-off read from the data, not from the text of the source: active = growth inhibition above about 70%; inactive = the rest.
Outcomes: label 1 = active, label 0 = inactive

[[record]]
molecule = "CC1(C)N([O-])[N+](=O)C1(C)Br (stereo not given)"
classification = "label 0"

[[record]]
molecule = "COc1ccc(/C=C(/C)[N+](=O)[O-])cc1"
classification = "label 1"

[[record]]
molecule = "C/C(=N\\Nc1ccccn1)C1CC[N-]C2C(O)CCCC12.C/C(=N\\Nc1ccccn1)C1CC[N-]C2C(O)CCCC12.[Cu+2] (stereo not given)"
classification = "label 1"

[[record]]
molecule = "CC(C)NCC(O)c1ccc(O)c(O)c1.[Pt].c1ccc([PH+](c2ccccc2)c2ccccc2)cc1.c1ccc([PH+](c2ccccc2)c2ccccc2)cc1"
classification = "label 1"

[[record]]
molecule = "COc1ccc(-c2c(C)c(C(=O)O)nc(-c3ccc4c(O)c(OC)c5c(c4n3)=NC(C)(C)N=5)c2N)c(O)c1OC"
classification = "label 0"

[[record]]
molecule = "O=C(OCc1ccccc1)C(C(Cl)c1ccccc1)N(Cc1ccccc1)Cc1ccccc1 (stereo not given)"
classification = "label 0"

[[record]]
molecule = "O=C(Nc1cc(Cl)ccc1Cl)C(Cl)(Cl)Cl"
classification = "label 0"

[[record]]
molecule = "CSc1ccc(NC(=O)C2c3[nH]c4ccccc4c3C3CCC(C(C)(C)C)CC3C2C(=O)O)cc1 (stereo not given)"
classification = "label 0"

[[record]]
molecule = "Cc1cc(-c2ccccc2)cc(C)[n+]1[O-]"
classification = "label 0"

[[record]]
molecule = "O=C1C(Br)=CC2(C=C1Br)CCNc1c(O)c3c4c(c12)=NCCC=4C=N3"
classification = "label 0"


* * *

procedure text: NCI Yeast Anticancer Drug Screen. Data for the rad50 strain (AID 155);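 also: 0% = growth of vehicle-only cultures of the same strain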
condition notes: S. cerevisiae rad50 strain growth inhibition; at 5.0 µM (retest, dose inferred, filed as 0.5)
This is part of a sample that, as a whole, favours compounds with a hit. Of some 79,000 tested, about 15% had one in any assay. Calls of active or inactive are those of the source. No stated cut-off is given here; in the data, active means growth inhibition above about 70%; inactive means the rest.
Outcomes: class 1 = active, class 0 = inactive

[[record]]
compound = "CC1CCS(=O)(=O)CC1.[Cl][Hg][Cl]"
classification = "class 1"

[[record]]
compound = "Nc1ncc(CCCCc2ccc(NC(=O)Nc3ccc(S(=O)(=O)F)cc3)cc2)c(N)n1"
classification = "class 0"

[[record]]
compound = "O=C1C2CCN(CC2)C1CN1CCOCC1 (configuration not stated)"
classification = "class 0"

[[record]]
compound = "[Cl][Hg].c1ccc([As]c2ccc(-c3ccccc3)cc2)cc1 (configuration not stated)"
classification = "class 1"

[[record]]
compound = "NC(=O)CNCc1ccc([As]=O)cc1 (configuration not stated)"
classification = "class 0"

[[record]]
compound = "CCCCCCCCCCCCCCCCP(=O)(O)OCC(N)C(=O)O (configuration not stated)"
classification = "class 0"

[[record]]
compound = "O=P(Nc1ccccc1)(Oc1ccccc1)N1CCN(c2ccccc2)CC1 (configuration not stated)"
classification = "class 0"

[[record]]
compound = "CC(=O)O[C@H]1C[C@@H]2OC3C=C(C)CCC3(C)[C@@]1(C)[C@@]21CO1 (some centres not stated)"
classification = "class 1"

[[record]]
compound = "NCCc1ccc(OCc2ccccc2)c(OCc2ccccc2)c1"
classification = "class 0"

[[record]]
compound = "O=C(CBr)Nc1ccccc1Cl"
classification = "class 0"

[[record]]
compound = "c1ccc(C[As+](c2ccccc2)(c2ccccc2)c2ccccc2)cc1"
classification = "class 0"

[[record]]
compound = "Cl[C](Cl)(Cl)[Hg][c]1ccccc1"
classification = "class 1"


* * *

procedure text: NCI Yeast Anticancer Drug Screen. Data for the sgs1 mgt1 strain (AID 161);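 also: 0% = growth of cultures given vehicle only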
condition notes: S. cerevisiae sgs1 mgt1 strain, at 5.0 µM (retest, dose inferred, filed as 0.5)
The panel holds about 79,000 compounds, 15% with a hit somewhere; the sample as a whole holds those more often. Activity calls are given as the source filed them. No stated cut-off is given here; in the data, active means growth inhibition above about 70%; inactive means the rest.
Outcomes: Y for active, N for inactive

[[record]]
compound = "CCC(C)(C)c1ccc(O)cc1"
classification = "N"

[[record]]
compound = "CNC(Cc1ccccc1)c1ccc(OC)c(OC)c1 (stereo not drawn)"
classification = "N"

[[record]]
compound = "CC/C(=C\\c1ccc(Cl)cc1)[N+](=O)[O-]"
classification = "N"

[[record]]
compound = "COc1cc(OC)c(OC)cc1/C=C/[N+](=O)[O-]"
classification = "N"

[[record]]
compound = "COC(=O)C(Cl)(Br)CCl (stereo not drawn)"
classification = "N"

[[record]]
compound = "C[Si]1(C)CCCCC2(C1)C(=O)NC(=O)NC2=O"
classification = "N"

[[record]]
compound = "[CH3][Sn]([Br])([Br])[CH2]CCCBr"
classification = "N"

[[record]]
compound = "COc1ccccc1[As]=O (stereo not drawn)"
classification = "N"

[[record]]
compound = "C=CCN1C(=O)NC(=O)/C(=C/c2c3ccccc3cc3ccccc23)C1=O"
classification = "N"

[[record]]
compound = "CCOC(=O)C1C2OC(=O)C(C(=O)C2CN(CCCl)CCCl)C1C1CC=C(CC2=CCC(C3C4C(=O)OC(C(CN(CCCl)CCCl)C4=O)C3C(=O)OCC)CC2)CC1 (stereo not drawn)"
classification = "N"

[[record]]
compound = "O=c1oc2ccccc2c(O)c1C(c1ccc2c(c1)Cc1ccccc1-2)c1c(O)c2ccccc2oc1=O"
classification = "N"

[[record]]
compound = "O=C(CCN1CC1)NCCc1ccccc1"
classification = "N"

[[record]]
compound = "COC12C(COC(C)=O)C3=C(C(=O)C(C)=C(N4CCCCC4)C3=O)N1CC1NC12 (stereo not drawn)"
classification = "Y"

[[record]]
compound = "O=C1C=CC(=O)C1(Br)Br"
classification = "N"

[[record]]
compound = "O=C(O)C(O)(c1ccccc1)C1(O)CCCCC1 (stereo not drawn)"
classification = "N"

[[record]]
compound = "CCOc1cc(/C=C/[N+](=O)[O-])ccc1O"
classification = "N"

[[record]]
compound = "CC(=O)OCC1OC(OC(C)C)[CH]([Hg][S]Cc2ccccc2)C(OC(C)=O)C1OC(C)=O (stereo not drawn)"
classification = "Y"

[[record]]
compound = "Nc1nc(-c2ccccc2)c(-c2ccccc2)[se]1"
classification = "N"

[[record]]
compound = "CCCCC(CC)CNP(=S)(NCC(CC)CCCC)NCC(CC)CCCC (stereo not drawn)"
classification = "N"

[[record]]
compound = "O=P(Oc1ccc(Cl)cc1)(Oc1ccc(Cl)cc1)N1CC1"
classification = "N"

[[record]]
compound = "CNC(=O)Oc1ccccc1/C=N\\Sc1ccc(Cl)cc1"
classification = "N"

[[record]]
compound = "C[C@]12CC/C(=N\\NC(=O)c3ccncc3)C[C@@H]1CC[C@@H]1[C@@H]2CC[C@]2(C)[C@@H](O)CC[C@@H]12"
classification = "N"

[[record]]
compound = "N#C[S-].[Ce+3].c1ccc(-c2ccccn2)nc1.c1ccc(-c2ccccn2)nc1.c1ccc(-c2ccccn2)nc1"
classification = "N"


* * *

procedure text: NCI Yeast Anticancer Drug Screen. Data for the CLN2oe strain (AID 163);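 also: 0% = growth of vehicle-only control cultures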
condition notes: S. cerevisiae CLN2oe strain, at 1.2 µM, stronger effect = higher value
Procedure: Growth inhibition of yeast strains with defined genetic alterations is measured as a screen for potential anti-cancer activity. Selected strains with alterations in DNA damage repair or cell cycle control were exposed to compounds and growth inhibition was measured relative to vehicle treated controls. The strain used in this assay is CLN2oe
This is part of a sample that, as a whole, favours compounds with a hit. Of some 79,000 tested, about 15% had one in any assay.
reported property: growth inhibition (%)

[[record]]
compound = "CNCC(O)c1ccc(O)c(O)c1.[Pt].c1ccc([PH+](c2ccccc2)c2ccccc2)cc1.c1ccc([PH+](c2ccccc2)c2ccccc2)cc1"
reported_property = "growth inhibition"
value = 0

[[record]]
compound = "C[C@]12CCc3nonc3C1CC[C@@H]1C2CC[C@]2(C)C(=O)CCC12 (stereo partly specified)"
reported_property = "growth inhibition"
value = 17

[[record]]
compound = "CC(C)CC(NC(=O)C(N)C(C)C)C(=O)NC(CCCCN)C(=O)Nc1ccc(N(CCCl)CCCl)cc1 (stereo unspecified)"
reported_property = "growth inhibition"
value = -3

[[record]]
compound = "Cc1cc[n+](C2=C(Nc3cccc(C(F)(F)F)c3)C(=O)c3ccccc3C2=O)cc1"
reported_property = "growth inhibition"
value = 3

[[record]]
compound = "COc1cc(O)c2c(O)c3c(c4c2c1[C@]1(C4)C(C)=CCCC1(C)C)[C@H](O)[C@@]1(O)CC(=O)C(C(N)=O)=C(O)[C@@]1(O)C3=O"
reported_property = "growth inhibition"
value = -6

[[record]]
compound = "N#Cc1cc(N(CCCl)CCCl)c([N+](=O)[O-])cc1[N+](=O)[O-]"
reported_property = "growth inhibition"
value = 2

[[record]]
compound = "N#CC(C#N)=Cc1ccc(C#N)cc1"
reported_property = "growth inhibition"
value = -4

[[record]]
compound = "O=C1OC2C(O1)C1(Cl)C(Cl)=C(Cl)C2(Cl)C1(Cl)Cl (stereo unspecified)"
reported_property = "growth inhibition"
value = -4

[[record]]
compound = "CCNCC(=O)O[C@]1(CC)C(=O)OCc2c1cc1n(c2=O)Cc2cc3ccccc3nc2-1"
reported_property = "growth inhibition"
value = 33

[[record]]
compound = "CCCCCCCCCC[Se]C#N"
reported_property = "growth inhibition"
value = -1

[[record]]
compound = "CCCCCCCCCCCCCCCCP(=O)(O)OCC(N)C(=O)O (stereo unspecified)"
reported_property = "growth inhibition"
value = 1

[[record]]
compound = "COC1C(O)C(C)OC(OC2C(Oc3cccc4c(O)c5c(=O)oc6ccc(C)c7c(=O)oc(c34)c5c67)OC(C)C(O)C2O)C1O (stereo unspecified)"
reported_property = "growth inhibition"
value = 1

[[record]]
compound = "CCC(=O)OC1CCn2c1nc1c2C(=O)C(C)=C(N2CC2)C1=O (stereo unspecified)"
reported_property = "growth inhibition"
value = -41

[[record]]
compound = "COc1ccc(OC)c(/C=C/[N+](=O)[O-])c1"
reported_property = "growth inhibition"
value = 6

[[record]]
compound = "Oc1c(Br)cc(Br)cc1Br"
reported_property = "growth inhibition"
value = -14

[[record]]
compound = "C[N+]1(CCCl)CC[N+](C)(CCCl)CC1 (stereo unspecified)"
reported_property = "growth inhibition"
value = -3

[[record]]
compound = "OCC(O)C(O)CO (stereo unspecified) (tested in a mixture with another compound)"
reported_property = "growth inhibition"
value = 2

[[record]]
compound = "COC(=O)C1=C(C(=O)OC)SC2(S1)C(C(=O)OC)=C(C(=O)OC)Sc1c2ssc1=O"
reported_property = "growth inhibition"
value = 14

[[record]]
compound = "COc1cc(C2c3cc4c(cc3[C@@H](Nc3ccc(N)cc3)C3COC(=O)[C@H]23)OCO4)cc(OC)c1O (stereo partly specified)"
reported_property = "growth inhibition"
value = 0

[[record]]
compound = "CC[C@]1(O)CC(OC2CC(N(C)C)C(O)C(C)O2)c2c(cc3c(c2O)C(=O)c2c(O)cccc2C3=O)[C@@H]1C(=O)OC (stereo partly specified)"
reported_property = "growth inhibition"
value = -37

[[record]]
compound = "CC1=C[C@H]2O[C@@H]3C[C@H]4OC(=O)/C=C\\C=C\\C(C(C)O)OCC(O)C(C)CC(=O)OC[C@@]2(C[C@@H]1O)[C@]4(C)[C@@]31CO1 (stereo partly specified)"
reported_property = "growth inhibition"
value = 13

